TEST TARGET: mouse TMEM16A mutant Y514A (Mus musculus, UniProt Q8BHY3, Y514A)
Construct: expressed in transfected cells; host or cells: HEK293T
Sequence (Q8BHY3 1-960 Y514A): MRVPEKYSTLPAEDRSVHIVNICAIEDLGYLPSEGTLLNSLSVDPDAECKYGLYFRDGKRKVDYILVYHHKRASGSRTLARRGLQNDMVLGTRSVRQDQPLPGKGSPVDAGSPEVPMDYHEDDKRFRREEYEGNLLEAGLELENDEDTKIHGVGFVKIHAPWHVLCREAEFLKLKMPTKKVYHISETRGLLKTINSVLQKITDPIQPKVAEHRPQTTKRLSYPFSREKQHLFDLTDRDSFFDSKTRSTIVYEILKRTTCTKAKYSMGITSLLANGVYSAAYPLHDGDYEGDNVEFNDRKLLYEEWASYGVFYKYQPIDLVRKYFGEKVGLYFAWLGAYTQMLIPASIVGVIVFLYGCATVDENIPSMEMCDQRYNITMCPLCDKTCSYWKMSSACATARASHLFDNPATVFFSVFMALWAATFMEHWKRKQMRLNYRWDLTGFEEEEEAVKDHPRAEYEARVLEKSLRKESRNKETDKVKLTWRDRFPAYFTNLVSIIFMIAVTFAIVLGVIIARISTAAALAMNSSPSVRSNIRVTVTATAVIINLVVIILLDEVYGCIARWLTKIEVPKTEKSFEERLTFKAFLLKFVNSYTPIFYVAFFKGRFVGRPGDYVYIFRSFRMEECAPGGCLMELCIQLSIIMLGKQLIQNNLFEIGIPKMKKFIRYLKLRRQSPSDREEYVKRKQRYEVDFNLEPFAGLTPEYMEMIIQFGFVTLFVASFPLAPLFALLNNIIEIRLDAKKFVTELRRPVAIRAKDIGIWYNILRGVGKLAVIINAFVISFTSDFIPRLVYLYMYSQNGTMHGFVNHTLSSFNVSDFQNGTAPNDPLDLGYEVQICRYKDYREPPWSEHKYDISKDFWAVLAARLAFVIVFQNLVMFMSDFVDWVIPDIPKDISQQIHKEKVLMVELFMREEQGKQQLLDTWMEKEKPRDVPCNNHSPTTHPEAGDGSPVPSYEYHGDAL
ASSAY TEXT: Inside-out patch recording of 1PBC block, mutant Y514A
Assay type: cell-based
EXPERIMENTAL PARAMETERS: Y514A; V -100 mV
MEASUREMENT TYPE: IC50 (µM)
Give the value in µM but do not write µM after it.

Observed IC50 on mouse TMEM16A mutant Y514A (Mus musculus, UniProt Q8BHY3, Y514A), entry N#Cc1c(C(F)(F)F)cc(O)n2c1nc1ccccc12 [1PBC] , equals 58

====

TEST TARGET: mouse TMEM16A mutant S517A (Mus musculus, UniProt Q8BHY3, S517A)
Construct: expressed in transfected cells; host or cells: HEK293T
ASSAY TEXT: Inside-out patch recording of 1PBC block, mutant S517A
Assay type: cell-based
EXPERIMENTAL PARAMETERS: S517A; V -80 mV
MEASUREMENT TYPE: pIC50
Schema: pIC50 number; meaning minus log10 of the concentration expressed in molar units.

GET /value?item= N#Cc1c(C(F)(F)F)cc(O)n2c1nc1ccccc12 [1PBC] &field=pIC50 returns 4.89

====

TEST TARGET: mouse TMEM16A mutant I636A (Mus musculus, UniProt Q8BHY3, I636A)
Construct: expressed in transfected cells; host or cells: HEK293T
ASSAY TEXT: Inside-out patch recording of 1PBC block, mutant I636A
Type: cell-based
EXPERIMENTAL PARAMETERS: I636A; V 0 mV
MEASUREMENT TYPE: IC50
Express your answer as a number followed by its unit.

GET /value?item= N#Cc1c(C(F)(F)F)cc(O)n2c1nc1ccccc12 &field=IC50 returns 6.73 µM

====

TEST TARGET: mouse TMEM16A mutant P595A (Mus musculus, UniProt Q8BHY3, P595A)
Construct: expressed in transfected cells; host or cells: HEK293T
Sequence (Q8BHY3 1-960 P595A): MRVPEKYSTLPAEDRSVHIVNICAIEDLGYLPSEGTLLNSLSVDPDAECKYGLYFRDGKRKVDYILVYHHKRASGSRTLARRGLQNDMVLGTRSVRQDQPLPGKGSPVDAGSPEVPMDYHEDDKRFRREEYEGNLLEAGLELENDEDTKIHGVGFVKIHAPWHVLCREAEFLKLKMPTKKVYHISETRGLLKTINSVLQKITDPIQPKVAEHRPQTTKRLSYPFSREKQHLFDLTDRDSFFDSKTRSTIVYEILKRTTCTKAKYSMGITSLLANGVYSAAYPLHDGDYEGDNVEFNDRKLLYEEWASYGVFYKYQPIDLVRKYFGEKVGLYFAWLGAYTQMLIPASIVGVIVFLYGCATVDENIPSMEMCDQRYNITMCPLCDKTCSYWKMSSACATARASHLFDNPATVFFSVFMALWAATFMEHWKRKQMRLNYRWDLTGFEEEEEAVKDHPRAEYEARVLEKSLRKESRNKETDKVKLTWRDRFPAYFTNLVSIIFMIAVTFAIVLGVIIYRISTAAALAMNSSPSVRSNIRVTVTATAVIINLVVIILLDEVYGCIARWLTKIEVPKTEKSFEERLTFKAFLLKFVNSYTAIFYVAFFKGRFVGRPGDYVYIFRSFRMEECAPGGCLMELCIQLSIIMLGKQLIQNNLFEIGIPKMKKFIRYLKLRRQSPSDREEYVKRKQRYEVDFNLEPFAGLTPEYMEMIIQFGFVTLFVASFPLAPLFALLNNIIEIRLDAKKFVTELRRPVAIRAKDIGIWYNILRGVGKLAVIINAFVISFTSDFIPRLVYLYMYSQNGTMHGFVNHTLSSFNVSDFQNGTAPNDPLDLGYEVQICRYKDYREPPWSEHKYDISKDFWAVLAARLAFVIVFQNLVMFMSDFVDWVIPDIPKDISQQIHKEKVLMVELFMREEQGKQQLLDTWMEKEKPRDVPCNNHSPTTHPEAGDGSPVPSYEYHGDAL
ASSAY TEXT: Inside-out patch recording of 1PBC block, mutant P595A
Format: cell-based
EXPERIMENTAL PARAMETERS: P595A; V 40 mV
MEASUREMENT TYPE: IC50 (nM)
Give the value in nM but do not write nM after it.

Observed IC50 on mouse TMEM16A mutant P595A (Mus musculus, UniProt Q8BHY3, P595A), entry N#Cc1c(C(F)(F)F)cc(O)n2c1nc1ccccc12 [1PBC] , equals 2000

====

TEST TARGET: mouse TMEM16A mutant G510P (Mus musculus, UniProt Q8BHY3, G510P)
Construct: expressed in transfected cells; host or cells: HEK293T
Sequence (Q8BHY3 1-960 G510P): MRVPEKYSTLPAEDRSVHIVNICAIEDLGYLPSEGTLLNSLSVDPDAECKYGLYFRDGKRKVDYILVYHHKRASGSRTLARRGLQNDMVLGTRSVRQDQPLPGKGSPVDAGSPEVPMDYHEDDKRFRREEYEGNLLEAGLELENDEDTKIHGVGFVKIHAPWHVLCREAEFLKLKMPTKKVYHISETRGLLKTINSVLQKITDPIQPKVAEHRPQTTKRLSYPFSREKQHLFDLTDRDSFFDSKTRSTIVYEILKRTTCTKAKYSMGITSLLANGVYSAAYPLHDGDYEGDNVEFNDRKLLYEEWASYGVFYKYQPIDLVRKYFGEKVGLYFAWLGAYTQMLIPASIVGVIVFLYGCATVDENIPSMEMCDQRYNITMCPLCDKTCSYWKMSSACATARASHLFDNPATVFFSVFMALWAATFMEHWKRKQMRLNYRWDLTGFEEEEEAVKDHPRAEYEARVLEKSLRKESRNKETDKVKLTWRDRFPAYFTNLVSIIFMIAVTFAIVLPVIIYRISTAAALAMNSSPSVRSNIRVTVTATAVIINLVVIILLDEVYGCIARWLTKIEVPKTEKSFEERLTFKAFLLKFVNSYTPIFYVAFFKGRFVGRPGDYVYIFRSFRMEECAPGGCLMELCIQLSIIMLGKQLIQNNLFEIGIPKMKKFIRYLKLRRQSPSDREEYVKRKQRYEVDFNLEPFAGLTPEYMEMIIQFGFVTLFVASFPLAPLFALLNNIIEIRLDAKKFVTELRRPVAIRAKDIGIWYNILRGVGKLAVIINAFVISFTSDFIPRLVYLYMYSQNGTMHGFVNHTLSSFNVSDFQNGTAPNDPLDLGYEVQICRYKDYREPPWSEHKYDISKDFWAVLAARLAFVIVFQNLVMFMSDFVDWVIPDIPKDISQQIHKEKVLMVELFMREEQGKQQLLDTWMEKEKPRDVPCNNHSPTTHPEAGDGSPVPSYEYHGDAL
ASSAY TEXT: Inside-out patch recording of 1PBC block, mutant G510P
Type: cell-based
EXPERIMENTAL PARAMETERS: 0 mV; 15 µM Ca2+
MEASUREMENT TYPE: IC50 (µM)
Give the value in µM but do not write µM after it.

GET /value?item= N#Cc1c(C(F)(F)F)cc(O)n2c1nc1ccccc12 &field=IC50 returns 65.7
